Origin of values: the NIST ThermoML archive (doi:10.1021/je201334p)

recorded_conditions: 308.15 K; 101 kPa; Liquid; Vibrating tube method
Numbers after ± are expanded uncertainties.
Exercise: for every item that follows, state its recorded mass density.
Reply with the number, then its unit.

Completed entries (count: 6):
# molecule, mass density
rows = [
    ("CCCC[n+]1cccc(C)c1.O=S(=O)([O-])C(F)(F)F [1-butyl-3-methylpyridinium trifluoromethanesulfonate]", "1271.8 ± 0.59 kg/m3"),
    ("CCCC[N+]1(C)CCCC1.N#CN=C=[N-] [1-butyl-1-methylpyrrolidinium dicyanamide]", "1007.93 ± 1.1 kg/m3"),
    ("CCCCn1cc[n+](C)c1.O=S(=O)([O-])C(F)(F)F [1-butyl-3-methylimidazolium trifluoromethanesulfonate]", "1291.62 ± 0.61 kg/m3"),
    ("CCCCn1cc[n+](C)c1.N#CN=C=[N-] [1-butyl-3-methylimidazolium dicyanamide]", "1053.83 ± 1.2 kg/m3"),
    ("CCOS(=O)(=O)[O-].CCc1cccc[n+]1CC [1,2-diethylpyridinium ethylsulfate]", "1212.65 ± 0.52 kg/m3"),
    ("CCCCCCn1cc[n+](C)c1.N#CN=C=[N-] [1-hexyl-3-methylimidazolium dicyanamide]", "1022.4 ± 2.5 kg/m3"),
]

Fill in mass density for each of the 2 molecules listed.
1. CCCC[N+]1(C)CCCC1.O=S(=O)([O-])C(F)(F)F [1-butyl-1-methylpyrrolidinium trifluoromethanesulfonate]
2. COS(=O)(=O)[O-].C[n+]1ccccc1 [1-methylpyridinium methylsulfate]

## Result
["1245.78 ± 0.56 kg/m3", "1339.37 ± 0.67 kg/m3"]

----------
recorded_conditions: 298.15 K; 101 kPa; Liquid; Sing-around technique in a fixed-path interferometer
Numbers after ± are expanded uncertainties.
Please go through the items and note down their speed of sound.

As a guide, the following entries are already answered.
# compound, speed of sound
records = [
    ("CCCC[n+]1cccc(C)c1.O=S(=O)([O-])C(F)(F)F [1-butyl-3-methylpyridinium trifluoromethanesulfonate]", "1412.3 ± 1.4 m/s"),
    ("CCCC[N+]1(C)CCCC1.O=S(=O)([O-])C(F)(F)F [1-butyl-1-methylpyrrolidinium trifluoromethanesulfonate]", "1460.1 ± 1.4 m/s"),
    ("COS(=O)(=O)[O-].C[n+]1ccccc1 [1-methylpyridinium methylsulfate]", "1875.8 ± 1.5 m/s"),
]

Note: attention shifts to another entry.
## Task # return recorded speed of sound for input CCCC[N+]1(C)CCCC1.N#CN=C=[N-] [1-butyl-1-methylpyrrolidinium dicyanamide]
## Result 1811.1 ± 2.3 m/s

----------
Assignment: determine reported refractive index for the given compounds.
measurement_protocol: refractive index (Na D-line) (dimensionless)
recorded_conditions: 288.15 K; 101 kPa; Liquid; Standard Abbe refractometry
Answers are plain numbers.

# compound, refractive index
records = [
    ("CCCCn1cc[n+](C)c1.O=S(=O)([O-])C(F)(F)F [1-butyl-3-methylimidazolium trifluoromethanesulfonate]", 1.44032),
    ("CCOS(=O)(=O)[O-].CCc1cccc[n+]1CC [1,2-diethylpyridinium ethylsulfate]", 1.51631),
    ("CCCC[N+]1(C)CCCC1.O=S(=O)([O-])C(F)(F)F [1-butyl-1-methylpyrrolidinium trifluoromethanesulfonate]", 1.43557),
    ("CCCCCCn1cc[n+](C)c1.N#CN=C=[N-] [1-hexyl-3-methylimidazolium dicyanamide]", 1.50729),
    ("CCCCn1cc[n+](C)c1.N#CN=C=[N-] [1-butyl-3-methylimidazolium dicyanamide]", 1.51213),
]

Quick one: give me refractive index for each item below, same order please.
1. CCCC[N+]1(C)CCCC1.N#CN=C=[N-] [1-butyl-1-methylpyrrolidinium dicyanamide]
2. COS(=O)(=O)[O-].C[n+]1ccccc1 [1-methylpyridinium methylsulfate]

## Result
1.49968
1.51603

## Task Provide only the value of recorded refractive index for CCCC[n+]1cccc(C)c1.O=S(=O)([O-])C(F)(F)F [1-butyl-3-methylpyridinium trifluoromethanesulfonate]
## Result 1.46446
